System: SR leukemia
Experiment: NCI tumour cell line growth inhibition, 48 h
Field: TGI. Provide a value for each of the molecules that follow.
Answers are plain numbers, in µM.

CC(C)OC(=O)C(NC(=O)C(CC(=O)OCc1ccccc1)NC(=O)OCc1ccccc1)NC(=O)C1C(C)(C)CCC1(C)C (centres undefined) ... 7.5

Data request: Fill blank: measured TGI of the molecule CC(=O)c1c(-c2ccc(Cl)cc2)c(C#N)c(=S)n(C2OC(CO)C(O)C(O)C2O)c1C (centres undefined) is ____.
Data returned: 87.6

###

Tested on: OVCAR-8 ovarian
Test: NCI tumour cell line growth inhibition, 48 h; in the data active means GI50 below about 0.43 µM; inactive means the rest
Please answer using one outcome listed in Yes = active, No = inactive

C/C(=C/CCC(C)[C@@H]1CC[C@]2(C)C3=C(CC[C@@]12C)[C@@]1(C)CCC(=O)C(C)(C)[C@@H]1CC3)C(=O)O (stereo not given in full) ... No
N#CN1CC[C@H](C(=O)Nc2ncc(-c3ccccc3)s2)C1 ... No

Data request: Answer briefly: the call reported for CCN1C(=O)N(CC)C2C1NC(=S)N2/N=C/C=C/c1ccccc1 (stereo not given) in this assay.
Data returned: Yes

Data request: Consider next the compound S=C(Sc1ccc(Cl)cc1)Sc1ccc(Cl)cc1 in the same way.
Data returned: No

Data request: Consider next the compound O=C(Nc1ccc(-n2cc(-c3ccncc3)c(-c3ccc(Cl)c(O)c3)n2)cc1)c1cc(C(F)(F)F)cc(C(F)(F)F)c1 in the same way.
Data returned: No
